FYI, the data here is from paper PMC12703733.

# System: E. faecalis ATCC 29212
# assay.procedure: microbe, parasite or virus in culture
# Format: cell-based
# conditions: ATCC 29212
Bridge positions count the residues as written; N and C are the ends. Square brackets hold non-standard residues; d marks the D form. Peptide text beside a SMILES is read from it. Phe(4-guanidino) = N=C(N)Nc1ccc(C[C@H](N)C(=O)O)cc1
readout.kind: MIC (µM)
Express the result in µM but write the number alone.

QUERY: # returns recorded MIC (system: E. faecalis ATCC 29212) for CC[C@H](C)[C@H](NC(=O)[C@H](CCCNC(=N)N)NC(=O)[C@H]1CCC(=O)NCCCC[C@H](NC(=O)[C@H](Cc2ccc(NC(=N)N)cc2)NC(=O)[C@H](Cc2c[nH]c3ccccc23)NC(=O)[C@@H]2CCCN2C(=O)[C@@H](NC(=O)[C@@H](N)Cc2ccccc2)C(C)C)C(=O)N[C@@H](CCCCN)C(=O)N[C@@H](Cc2ccccc2)C(=O)N[C@H](CC(C)C)C(=O)N1)C(=O)N[C@@H](CC(C)C)C(N)=O [Peptide 8, FVPW(p-guanidino)F[KKFle]RIL] (H-FVPW[Phe(4-guanidino)]KKF[dL][dE]RIL-NH2; lactam 6-10)
RESULT: 25
